target of assay: GlcNAc(b1-3)Gal
assay explanation: glycan array binding signal (z-score within array); higher = stronger binding
conditions used: glycan notation: IUPAC condensed, linker removed
This is one part of a sample in which the strongest signals are shown more often than they occur.

{"binder": "IRP60A (Homo sapiens), Q9UGN4 (protein) MWLPWALLLLWVPGCFALSKCRTVAGPVGGSLSVQCPYEKEHRTLNKYWCRPPQIFLCDKIVETKGSAGKRNGRVSIRDSPANLSFTVTLENLTEEDAGTYWCGVDTPWLRDFHDPVVEVEVSVFPASTSMTPASITAAKTSTITTAFPPVSSTTLFAVGATHSASIQEETEEVVNSQLPLLLSLLALLLLLLVGASLLAWRMFQKWIKAGDHSELSQNPKQAATQSELHYANLELLMWPLQEKPAPPREVEVEYSTVASPREELHYASVVFDSNTNRIAAQRPREEEPDSDYSVIRKT", "glycan array binding signal (z-score)": -0.069}
{"binder": "Strep tagII-anxA1 (Homo sapiens), P04083 (protein) MAMVSEFLKQAWFIENEEQEYVQTVKSSKGGPGSAVSPYPTFNPSSDVAALHKAIMVKGVDEATIIDILTKRNNAQRQQIKAAYLQETGKPLDETLKKALTGHLEEVVLALLKTPAQFDADELRAAMKGLGTDEDTLIEILASRTNKEIRDINRVYREELKRDLAKDITSDTSGDFRNALLSLAKGDRSEDFGVNEDLADSDARALYEAGERRKGTDVNVFNTILTTRSYPQLRRVFQKYTKYSKHDMNKVLDLELKGDIEKCLTAIVKCATSKPAFFAEKLHQAMKGVGTRHKALIRIMVSRSEIDMNDIKAFYQKMYGISLCQAILDETKGDYEKILVALCGGN", "glycan array binding signal (z-score)": -0.607}
{"binder": "Gal 8 (Homo sapiens), O00214 (protein) MMLSLNNLQNIIYNPVIPFVGTIPDQLDPGTLIVIRGHVPSDADRFQVDLQNGSSMKPRADVAFHFNPRFKRAGCIVCNTLINEKWGREEITYDTPFKREKSFEIVIMVKDKFQVAVNGKHTLLYGHRIGPEKIDTLGIYGKVNIHSIGFSFSSDLQSTQASSLELTEISRENVPKSGTPQLPSNRGGDISKIAPRTVYTKSKDSTVNHTLTCTKIPPMNYVSKRLPFAARLNTPMGPGRTVVVKGEVNANAKSFNVDLLAGKSKDIALHLNPRLNIKAFVRNSFLQESWGEEERNITSFPFSPGMYFEMIIYCDVREFKVAVNGVHSLEYKHRFKELSSIDTLEINGDIHLLEVRSW", "glycan array binding signal (z-score)": -0.434}
{"binder": "DGL (Dioclea grandiflora), P08902 (protein) ADTIVAVELDSYPNTDIGDPNYPHIGIDIKSIRSKSTARWNMQTGKVGTVHISYNSVAKRLSAVVSYSGSSSTTVSYDVDLNNVLPEWVRVGLSATTGLYKETNTILSWSFTSKLKTNSIADENSLHFSFHKFSQNPKDLILQGDAFTDSDGNLELTKVSSSGDPQGNSVGRALFYAPVHIWESSAVVASFDATFTFLIKSPDREPADGITFFIANTDTSIPSGSGGRLLGLFPDAN", "glycan array binding signal (z-score)": -0.178}
